Origin of values: paper PMC8347595

What follows is a collection of Ki values obtained with 5-HT7R (Homo sapiens).
Sequence (P34969 1-432): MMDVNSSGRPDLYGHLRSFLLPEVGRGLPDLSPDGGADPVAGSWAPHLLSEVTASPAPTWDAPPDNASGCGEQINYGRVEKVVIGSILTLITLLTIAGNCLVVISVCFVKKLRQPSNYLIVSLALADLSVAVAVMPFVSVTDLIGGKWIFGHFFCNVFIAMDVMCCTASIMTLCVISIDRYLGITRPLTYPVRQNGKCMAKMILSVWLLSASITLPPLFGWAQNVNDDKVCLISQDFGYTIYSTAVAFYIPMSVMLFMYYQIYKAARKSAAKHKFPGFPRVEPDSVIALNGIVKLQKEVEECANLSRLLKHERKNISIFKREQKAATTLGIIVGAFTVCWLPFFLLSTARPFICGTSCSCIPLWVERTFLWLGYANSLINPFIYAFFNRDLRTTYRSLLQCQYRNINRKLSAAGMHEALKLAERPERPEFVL
Numbers only, in µM.

Worked cases, answers included:
c1ccc(COc2cccc3c(CNCCc4c[nH]c5ccccc45)c[nH]c23)cc1 [Compound 19]: 11.2
Clc1ccc2[nH]cc(CNCCc3c[nH]c4ccccc34)c2c1 [Compound 11]: 3.8
Clc1ccc2c(CNCCc3c[nH]c4ccccc34)c[nH]c2c1 [Compound 14]: 15.8

Return reported Ki values for all items listed beneath this line.
1. c1ccc2c(CCNCc3c[nH]c4ccccc34)c[nH]c2c1 [Compound 1]
2. COc1ccc2[nH]cc(CCNCc3c[nH]c4c(Cl)cccc34)c2c1 [Compound 20]

1. 28.8
2. 0.295
